Biological target: T1, Human BCMA (B Cell Maturation Antigen) (human, UniProt Q02223 1-184)
T1 sequence: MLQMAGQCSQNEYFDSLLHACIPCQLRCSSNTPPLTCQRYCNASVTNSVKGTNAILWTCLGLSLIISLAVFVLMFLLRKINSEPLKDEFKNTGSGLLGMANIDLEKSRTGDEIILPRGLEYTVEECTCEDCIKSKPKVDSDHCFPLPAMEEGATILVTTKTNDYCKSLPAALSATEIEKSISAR
Assay: cell-based or functional assay
Give measured EC50 of cell viability (CellTiter-Glo 2.0), NCI-H929 (BCMA-positive) cells, 120-hour assay for each item. Keep answers brief.
Your reply should be a number followed by the unit it is expressed in.

Query block: Need EC50 of cell viability (CellTiter-Glo 2.0), NCI-H929 (BCMA-positive) cells, 120-hour assay, item anti-BCMA-AB1-Compound 3 (antibody, human IgG1, V domains shown, drug-linker Compound 3 on antibody cysteine thiols (C-lock conjugation; positions not stated)) VH: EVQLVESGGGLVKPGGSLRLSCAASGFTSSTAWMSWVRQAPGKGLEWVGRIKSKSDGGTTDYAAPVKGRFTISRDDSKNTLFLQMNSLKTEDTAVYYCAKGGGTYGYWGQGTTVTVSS VL: QSVLTQPASVSGSPGQSVTISCTGTSSAHGGHYYVSWYQQHPGKAPKLMIYDVSNRPSGVSNRFSGSKSGNTASLTISGLQAEDEADYYCGSYTSSGSYVFGTGTKLTVL
Result block: 0.368 nM

Query block: Need EC50 of cell viability (CellTiter-Glo 2.0), NCI-H929 (BCMA-positive) cells, 120-hour assay, item anti-BCMA-AB1-Compound 51 (antibody, human IgG1, V domains shown, drug-linker Compound 51 on antibody cysteine thiols (C-lock linkage; positions not stated)) VH: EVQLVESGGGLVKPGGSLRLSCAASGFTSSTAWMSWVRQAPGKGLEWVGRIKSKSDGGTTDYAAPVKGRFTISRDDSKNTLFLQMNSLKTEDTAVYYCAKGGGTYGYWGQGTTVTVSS VL: QSVLTQPASVSGSPGQSVTISCTGTSSAHGGHYYVSWYQQHPGKAPKLMIYDVSNRPSGVSNRFSGSKSGNTASLTISGLQAEDEADYYCGSYTSSGSYVFGTGTKLTVL
Result block: 1.93 nM

Query block: Need EC50 of cell viability (CellTiter-Glo 2.0), NCI-H929 (BCMA-positive) cells, 120-hour assay, item anti-BCMA-AB1-Compound 53 (antibody, human IgG1, V domains shown, drug-linker Compound 53 conjugated to the antibody (PFP linkage; residues not stated)) VH: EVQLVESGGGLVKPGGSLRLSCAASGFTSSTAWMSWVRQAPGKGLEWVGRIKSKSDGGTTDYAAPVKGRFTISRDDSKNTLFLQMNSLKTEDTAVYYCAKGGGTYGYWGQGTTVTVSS VL: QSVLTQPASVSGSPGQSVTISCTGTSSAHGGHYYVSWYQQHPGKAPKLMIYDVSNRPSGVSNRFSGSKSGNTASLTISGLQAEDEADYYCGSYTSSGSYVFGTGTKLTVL
Result block: 0.398 nM

Query block: Need EC50 of cell viability (CellTiter-Glo 2.0), NCI-H929 (BCMA-positive) cells, 120-hour assay, item anti-BCMA-AB1-Compound 50 (antibody, human IgG1, V domains shown, drug-linker Compound 50 on antibody cysteine thiols (C-lock linkage; positions not stated)) VH: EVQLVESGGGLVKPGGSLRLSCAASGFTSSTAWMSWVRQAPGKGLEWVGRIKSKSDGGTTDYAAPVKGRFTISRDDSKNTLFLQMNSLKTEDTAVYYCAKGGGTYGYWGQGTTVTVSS VL: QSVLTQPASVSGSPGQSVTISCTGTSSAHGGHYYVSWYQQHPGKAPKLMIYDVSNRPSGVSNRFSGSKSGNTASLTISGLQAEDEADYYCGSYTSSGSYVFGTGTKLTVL
Result block: 0.762 nM

# credit: patent US20240181073A1
